# Tested on: LXFL 529
# PROTOCOL_TEXT: NCI tumour cell line growth inhibition, 48 h
Active and inactive are the calls of the source. Cut-off read from the data, not from the text of the source: active = GI50 up to about 1.1 µM and inactive = higher.
Each entry below carries its reported GI50.

Solved entries:
Cc1ccc(S(=O)(=O)c2ccc(NC(=O)SCCC(=O)O)cc2)cc1    > 100 µM (inactive)
O=c1nc2occc2cn1C1CC(O)C(CO)O1 (stereo not drawn)    > 100 µM (inactive)
CC(C(=O)N1C(=O)N(C(=O)C(C)C(O)c2ccccc2)C2CCCCC21)C(O)c1ccccc1 (stereo not drawn)    44.1 µM (inactive)

INPUT: Quote GI50 reported for CCCOC(=O)C1C(c2ccc(OC)cc2)NC(c2ccc(OC)cc2)C(C(=O)OCCC)S1(=O)=O (stereo not drawn) please.
OUTPUT: > 10 µM (inactive)

INPUT: Please report GI50 for the following molecule: COC(=O)CCC(NC(=S)N/N=C(\C)c1ccc[nH]1)C(=O)OC (stereo not drawn)
OUTPUT: > 100 µM (inactive)

INPUT: Indicate the recorded GI50 value for this molecule: CN(C)CCC(CCN(C)C)=NOC(=O)c1ccccc1
OUTPUT: > 100 µM (inactive)

INPUT: Please give measured GI50 of the following entry: CCOC(=O)C(=O)Nc1c(C)cccc1C(C)C
OUTPUT: > 100 µM (inactive)

* * *

# System: SK-OV-3
# PROTOCOL_TEXT: NCI tumour cell line growth inhibition, 48 h
Activity calls are given as the source filed them. No stated cut-off is given here; in the data, active = GI50 up to about 1.1 µM and inactive = higher. Non-standard residues stand in square brackets, D forms with d. Residues, ends and D or L forms follow the SMILES beside them. β3hI = CC[CH](C)[CH](N)CC(=O)O
PROPERTY_NAME: GI50

O=C(NCCNCCCNC(=O)c1cc(-c2ccccc2)nc2ccccc12)c1cccc(O)c1O    6.11 µM (inactive)
CCNC(=S)NNC(=O)CSc1nc2ccc(I)cc2c(=O)n1Cc1ccccc1    35 µM (inactive)
O=C(O)c1ccccc1/C=N/N=C1c2ccccc2-c2ccccc21    44.9 µM (inactive)
COc1ccc2c(c1)c1cc(OC)ccc1n2CCCCOc1ccc(-c2c3ccccc3c(-c3ccc(OCCCCn4c5ccc(OC)cc5c5cc(OC)ccc54)cc3)c3ccccc23)cc1    > 100 µM (inactive)
Cc1ccc(C)c(NC(=O)CCc2nnc(S)[nH]2)c1    > 100 µM (inactive)

INPUT: Name the recorded GI50 of the item CC(=O)Nc1ccc(-c2nnc(SCC(=O)Nc3ccc(C)cc3)o2)cc1 in your answer.
OUTPUT: 49.2 µM (inactive)

INPUT: Determine its reported GI50: CN(C)Cc1cc(/N=N/c2ccccc2Cl)ccc1O
OUTPUT: 39.2 µM (inactive)

INPUT: Quickly give me recorded GI50 for CC(C)[C@H](NC(=O)OCc1ccccc1)C(=O)N[C@H](/C=C/C(=O)OC(C)(C)C)CO
OUTPUT: > 100 µM (inactive)

INPUT: Name the recorded GI50 of the compound listed here: NC(=O)c1cc(N2CC2)c([N+](=O)[O-])cc1[N+](=O)[O-] [TRETAZICAR]
OUTPUT: > 100 µM (inactive)

INPUT: Tell me measured GI50 for Oc1c(Br)cc(Br)cc1CN(Cc1cc(Br)cc(Br)c1O)C1CCCCC1 please.
OUTPUT: 44.6 µM (inactive)

INPUT: Please give the documented GI50 of Cc1ccc(S(=O)(=O)SCc2ccccc2)cc1
OUTPUT: 52.2 µM (inactive)

INPUT: Please list GI50 recorded for the compound C=CCN(N=O)C(=O)N(CCC)CCCC(NC(C)=O)C(=O)NCc1ccccc1 (centres undefined)
OUTPUT: > 100 µM (inactive)

INPUT: Consider the compound CC[C@H](NC1=C(Cl)C(=O)c2c(O)ccc(O)c2C1=O)C(=O)OC and give its recorded GI50.
OUTPUT: > 10 µM (inactive)

INPUT: Determine from records and report GI50 for CCC(C)C(CC(=O)N1CCCC1C(=O)NC(C(=O)NC(C(=O)NCC(=O)NC(CC(N)=O)C(=O)NC(C(=O)NC(C(=O)NC(CCCCN)C(N)=O)C(C)CC)C(C)CC)C(C)C)C(C)CC)NC(=O)C(N)C(C)CC (stereo not drawn) (H-I[β3hI]PIVGNIIK-NH2; configuration not given here)
OUTPUT: > 50 µM (inactive)

INPUT: Determine its reported GI50: C=C(CN(C)C)C(=O)c1cc(C)ccc1C
OUTPUT: 18.4 µM (inactive)

INPUT: Tell me measured GI50 for CC(NC(=O)Cc1ccc(OP(=O)(OCc2ccc([N+](=O)[O-])o2)N(C)CCCCCl)cc1)c1ccc(OCC2CCCCC2)c(C(N)=O)c1 (centres undefined) please.
OUTPUT: 3.08 µM (inactive)

INPUT: Hello, please tell me recorded GI50 for this one: COc1ccc(OC)c(N2C(=O)CSC2c2cc(OC)c(OC)c(OC)c2)c1 (centres undefined)
OUTPUT: > 100 µM (inactive)

INPUT: # return recorded GI50 for entry O=C(Nc1nc2ccc([N+](=O)[O-])cc2s1)C(=O)C(C(=O)c1ccccc1F)C1OC(=O)c2ccccc21 (centres undefined)
OUTPUT: 29 µM (inactive)

INPUT: Output GI50 of CCOC(=O)Oc1ccc(C(CNC(C)C)OC(=O)OCC)cc1OC(=O)OCC (centres undefined)
OUTPUT: > 100 µM (inactive)

INPUT: Using the record for Cc1cccc(-c2cc(O)c3c(C)cc(C)nc3n2)c1 , state its measured GI50.
OUTPUT: 2.24 µM (inactive)

INPUT: Give the value of GI50 reported for the following: Cc1ccc([N+](=O)[O-])c2c(NCC(O)CO)ccnc12 (centres undefined)
OUTPUT: > 100 µM (inactive)

INPUT: Give the measured GI50 for c1ccc2c(c1)sc1c3cnccc3ccc21
OUTPUT: > 100 µM (inactive)

INPUT: Tell me GI50 reported for CCc1cccc(CC)c1Nc1nc2c(s1)C(=O)c1ccccc1C2=O
OUTPUT: 27.3 µM (inactive)

INPUT: Using known records, supply GI50 for COC(=O)/C(=N/NC(=O)C[N+](C)(C)C)C(C(=O)OC)C(=O)C(=O)Nc1ccc(F)cc1 (centres undefined)
OUTPUT: > 100 µM (inactive)

INPUT: Complete the entry with GI50 for O=C(/C(=C\c1ccccc1)CN1CCOCC1)c1ccc(Br)cc1
OUTPUT: 3.61 µM (inactive)

INPUT: Specify GI50 for O=c1c(-c2ccccc2)c(SCCO)n(-c2ccccc2)c(=S)n1-c1ccccc1 and stop.
OUTPUT: > 100 µM (inactive)

INPUT: Dear colleague, please send me the reported GI50 for c1ccc2c(c1)Sc1ccccc1N2C1CN2CCC1CC2 (centres undefined) when you can.
OUTPUT: 19.5 µM (inactive)

INPUT: Supply measured GI50 of CC(=O)O[C@H]1CC[C@@]2(C)C(=CC[C@@H]3[C@@H]2CC[C@]2(C)C(=N/O)/C(=C\c4ccccc4)C[C@@H]32)C1 in your reply.
OUTPUT: 28.9 µM (inactive)

INPUT: Given CC(C)C1CC(CO)(CNc2nc(N)nc(Cl)c2C=O)C1 (centres undefined) , respond with its GI50.
OUTPUT: 6.79 µM (inactive)

INPUT: Tell us which GI50 value is on record for COC(=O)c1sc2ncc3c(c2c1N)CC(C)CC3 (centres undefined)
OUTPUT: > 100 µM (inactive)

INPUT: Supply GI50 value. Item: COc1nc2ccc(CNc3ccc(C(=O)O)cc3)cc2nc1OC
OUTPUT: > 10 µM (inactive)

* * *

GI50 values by entry
# Test system: HT-29
# PROTOCOL_TEXT: NCI tumour cell line growth inhibition, 48 h
The source made the active and inactive calls. Rule as the data show it: active = GI50 up to about 1.1 µM and inactive = higher.

Field: example entries. Status: answers known.
CC(=O)O[C@H]1CC[C@@]2(C)C(=CC[C@@H]3[C@@H]2CC[C@]2(C)C(=N/O)/C(=C\c4ccccc4)C[C@@H]32)C1    3.99 µM (inactive)
C=CCN(N=O)C(=O)N(CCC)CCCC(NC(C)=O)C(=O)NCc1ccccc1 (centres undefined)    > 100 µM (inactive)
O=c1oc2c(Br)c(O)c(Br)cc2c2ccccc12    30 µM (inactive)
O=C1CSC(c2ccc([N+](=O)[O-])cc2)N1c1ccc(-c2ccc(-n3c(-c4ccccc4)nc4ccccc4c3=O)cc2)cc1 (centres undefined)    49.7 µM (inactive)
CC(C)c1ccc(/C=C2\N=C(c3ccc([N+](=O)[O-])cc3)OC2=O)cc1    > 100 µM (inactive)

INPUT: Name the recorded GI50 of the item Cc1ccc2[nH]c3[nH]c(=S)[nH]c(=O)c3c2c1 in your answer.
OUTPUT: > 100 µM (inactive)

INPUT: Name the recorded GI50 of the item [N-]=[N+]=Nc1c(Cl)c(=O)n(-c2ccccc2)c2ccccc12 in your answer.
OUTPUT: 23.2 µM (inactive)

INPUT: Using the record for CCCCCCCCCCCC[N+](CCCCCCCCCCCC)=C1SCCS1 , state its measured GI50.
OUTPUT: 3.36 µM (inactive)

INPUT: Supply recorded GI50 for COc1ccc(CCN2CCC(C#N)(c3ccc(OC)c(OC)c3)CC2)cc1OC here.
OUTPUT: > 100 µM (inactive)
